Test system: Para-influenza-3 virus
Assay: organism not typed
Assay type: cell-based
Conditions: Vero, read-out: EC50 Para-influenza-3 virus
reported_property: EC50 (µM)
Output spec: scalar in µM, unitless text.

Return reported EC50; argument: NC(=O)c1ncn([C@@H]2O[C@H](CO)[C@@H](O)[C@H]2O)n1 112

###

System: Sindbis virus
Assay: microbe, parasite or virus in culture
Type: cell-based
Conditions: Vero, read-out: EC50 Sindbis virus
reported_property: EC50

[[record]]
compound = "NC(=O)c1ncn([C@@H]2O[C@H](CO)[C@@H](O)[C@H]2O)n1"
reported_result = "> 250 µM"


Below: the item to evaluate.
Return reported EC50; argument: Nc1ncnc2c1ncn2C[C@H](O)CO [(S)-DHPA] > 250 µM
